Test: total protein half-life in vivo (active degradation + dilution); higher = more stable protein
Settings: wild type E. coli NCM3722; growth: N-lim chemostat; doubling time 6 h
# Lookup of reported total protein half-life in vivo keyed by entry
Give the value in h but do not write h after it.

Some entries whose results are on file:
Asked: Determine from records and report total protein half-life in vivo for MNMKKLATLVSAVALSATVSANAMAKDTIALVVSTLNNPFFVSLKDGAQKEADKLGYNLVVLDSQNNPAKELANVQDLTVRGTKILLINPTDSDAVGNAVKMANQANIPVITLDRQATKGEVVSHIASDNVLGGKIAGDYIAKKAGEGAKVIELQGIAGTSAARERGEGFQQAVAAHKFNVLASQPADFDRIKGLNVMQNLLTAHPDVQAVFAQNDEMALGALRALQTAGKSDVMVVGFDGTPDGEKAVNDGKLAATIAQLPDQIGAKGVETADKVLKGEKVQAKYPVDLKLVVKQ
Given back: 6.13

Asked: Determine from records and report total protein half-life in vivo for MNMMRIFYIGLSGVGMMFSSMASGNDAGGLQSPACGVVCDPYICVNSDGISPELTRKYLGEKAAENLQSLQGYDPSEFTFANGVFCDVKEKLCRDDRYFGVDGKRSGKINQTTTKMLFMCRE
Given back: 4.42

More entries:
Asked: Assign total protein half-life in vivo to the following record: MPDQTQQFSFKVLTINIHKGFTAFNRRFILPELRDAVRTVSADIVCLQEVMGAHEVHPLHVENWPDTSHYEFLADTMWSDFAYGRNAVYPEGHHGNAVLSRYPIEHYENRDVSVDGAEKRGVLYCRIVPPMTGKAIHVMCVHLGLREAHRQAQLAMLAEWVNELPDGEPVLVAGDFNDWRQKANHPLKVQAGLDEIFTRAHGRPARTFPVQFPLLRLDRIYVKNASASAPTALPLRTWRHLSDHAPLSAEIHL [P0AAW1]
Given back: 5.11

Asked: Give total protein half-life in vivo for the following sequence: MKTLIVSTVLAFITFSAQAAAFQVTSNEIKTGEQLTTSHVFSGFGCEGGNTSPSLTWSGVPEGTKSFAVTVYDPDAPTGSGWWHWTVVNIPATVTYLPVDAGRRDGTKLPTGAVQGRNDFGYAGFGGACPPKGDKPHHYQFKVWALKTEKIPVDSNSSGALVGYMLNANKIATAEITPVYEIK
Given back: 6.15

Values were extracted from the supplement of paper PMC11246515.
